- tested system: Acetylcholinesterase (Homo sapiens) (UniProt P22303)
- Sequence (P22303 whole entry, looked up): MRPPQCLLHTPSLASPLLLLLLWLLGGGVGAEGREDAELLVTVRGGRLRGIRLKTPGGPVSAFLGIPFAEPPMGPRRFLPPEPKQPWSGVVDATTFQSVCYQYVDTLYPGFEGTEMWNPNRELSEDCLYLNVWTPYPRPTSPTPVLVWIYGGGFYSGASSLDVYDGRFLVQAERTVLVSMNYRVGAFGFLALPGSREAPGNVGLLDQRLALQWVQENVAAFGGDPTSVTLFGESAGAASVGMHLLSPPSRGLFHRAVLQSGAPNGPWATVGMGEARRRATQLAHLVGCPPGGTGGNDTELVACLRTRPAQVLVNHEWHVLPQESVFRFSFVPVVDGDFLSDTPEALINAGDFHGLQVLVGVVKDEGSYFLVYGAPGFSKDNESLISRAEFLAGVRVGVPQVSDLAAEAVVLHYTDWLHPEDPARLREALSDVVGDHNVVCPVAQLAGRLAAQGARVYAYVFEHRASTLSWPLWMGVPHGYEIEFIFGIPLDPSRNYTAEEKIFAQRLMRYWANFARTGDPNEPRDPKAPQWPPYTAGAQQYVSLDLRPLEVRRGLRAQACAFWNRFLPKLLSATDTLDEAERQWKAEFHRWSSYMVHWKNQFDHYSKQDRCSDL
- assay explanation: Acetylcholinesterase (AChE) small molecule antagonists: enzyme-based qHTS assay with human liver microsomes (AID 1347399); further: nearly all actives have a fitted effect of over 60% in size
- details: qHTS inhibition; series mostly up to 115 µM
Calls of active or inactive are those of the source. The call rests on the fitted dose curve.
metric name: outcome

CCOC(=O)CC(C(C)=O)C(C)=O inactive
c1ccc2scnc2c1 inactive
Cc1ccc2ccc(Cl)cc2n1 inactive

* * *

- assay explanation: qHTS assay to identify small molecule antagonists of the estrogen related receptor (ERR) signaling pathway (AID 1224819; further: nearly all actives have a fitted effect of over 50% in size)
- details: ERR reporter cell line, luciferase inhibition; series mostly up to 46.1 µM
Records with an inconclusive call do not appear. Calls of active or inactive are those of the source. The call rests on the fitted dose curve; in most records, active means well fitted inhibition curve with a large enough effect in the repeat runs; inconclusive means weak or mixed curves; inactive means no such curve, though single readings can be large or run the other way.
Parameter call: string, one of active, inactive

Previously resolved entries follow.
compound	assigned class
NC(N)=Nc1ccc2[nH]c3c(c2c1)C[C@@]1(O)[C@H]2Cc4ccc(O)c5c4[C@@]1(CCN2CC1CC1)[C@H]3O5	inactive
COc1ccc(OC)c(C(O)C(C)N)c1 (stereo unspecified)	inactive
C[N+]1(C)CCc2cc3c(cc2[C@H]1[C@@H]1OC(=O)c2c1ccc1c2OCO1)OCO3	inactive
C[C@@H]1O[C@@H](O[C@H]2C[C@@H](O)[C@]3(CO)[C@@H]4C(CC[C@]3(O)C2)[C@@]2(O)CC[C@H]([C@@H]3COC(=O)C3)[C@@]2(C)C[C@H]4O)[C@H](O)[C@H](O)[C@H]1O (stereo partly specified)	active
O=C(N[C@H]1CN2CCC1CC2)c1ccc(Cl)cc1	inactive

Would you kindly look at the next entry?
What classification did O=[N+]([O-])c1ccc2nc(N3CCNCC3)ccc2c1 end up with in this test? inactive

* * *

- assay explanation: qHTS assay to identify small molecule antagonists of the glucocorticoid receptor (GR) signaling pathway - cell viability counter screen (AID 720693); further: nearly all actives have a fitted effect of over 55% in size
- details: GR-bla HeLa viability, CellTiter-Glo luminescence, 18 h, with 5 nM dexamethasone present; series mostly up to 58.5 µM
Results filed as inconclusive are left out. The source made the active and inactive calls. The call rests on the fitted dose curve; in most records, active means well fitted cell-killing curve with a large enough effect in the repeat runs; inconclusive means weak or mixed curves, or effect the other way; inactive means no such curve, though single readings can be large or run the other way.
Parameter call: string, one of Y = active, N = inactive

Previously resolved entries follow.
compound	assigned class
CCNC(C)Cc1cccc(C(F)(F)F)c1 (configuration not stated)	N
CCNC1(c2cccs2)CCCCC1=O (configuration not stated)	N
CC[C@H]1[C@@H]2C[C@H]3[C@@H]4N(C)c5ccccc5[C@]45C[C@@H](C2[C@H]5O)N3[C@@H]1O (some centres not stated)	N
CC(=O)OO	N
CC1(C)S[C@@H]2[C@H](N)C(=O)N2[C@H]1C(=O)O	N
O=C1CN(O)C(c2ccccc2)=c2cc(Cl)ccc2=N1	N

What classification did NCC[C@H](O)C(=O)N[C@@H]1C[C@H](N)[C@@H](O[C@H]2O[C@H](CN)[C@@H](O)[C@H](O)[C@H]2N)[C@H](O[C@@H]2O[C@H](CO)[C@@H](O)[C@H]2O)[C@H]1O end up with in this test? N

What classification did CC(Cc1ccccc1)NC=O (configuration not stated) end up with in this test? N

What classification did C[C@H]1CC[C@]2(NC1)O[C@H]1C[C@H]3[C@@H]4CC[C@H]5C[C@@H](O)CC[C@]5(C)[C@H]4CC[C@]3(C)[C@H]1[C@@H]2C end up with in this test? N

What classification did O=C1C=C2C=C[C@@H]3C[C@@]2(O1)[C@H]1CCCCN31 end up with in this test? N

What classification did O=C(C[C@@H]1NCCC[C@H]1O)Cn1cnc2cc(Br)c(Cl)cc2c1=O end up with in this test? N

What classification did CN[C@H]1C[C@@H](N)[C@H](O)[C@@H](O[C@@H]2O[C@H](CO)[C@H](O)[C@@H]3OC4(O[C@H]23)O[C@H](C(N)CO)[C@H](O)[C@H](O)[C@H]4O)[C@@H]1O (some centres not stated) end up with in this test? N

What classification did CC(=O)OCC(=O)[C@H]1CC[C@H]2[C@@H]3CC[C@H]4C[C@H](O)CC[C@]4(C)[C@H]3C(=O)C[C@]12C end up with in this test? N

What classification did [H+].[H+].[Hg+2].[O-]B([O-])[O-].[c-]1ccccc1 end up with in this test? Y

What classification did CC(=O)[C@H]1CC[C@H]2[C@@H]3CC[C@@H]4C[C@H](O)CC[C@]4(C)[C@H]3CC[C@]12C end up with in this test? N

What classification did Oc1cccc[c]1[Hg][Cl] end up with in this test? Y

What classification did C[C@@H]1[C@H]2Cc3ccc(O)cc3[C@]1(C)CCN2C end up with in this test? N
